experiment: Clearance in rat at 5 mg/kg; assay type: ADME, organism-based; parameters: dose 5 mg/kg; settings: in vivo
Readout: clearance (mL/min/kg)

| Item Smiles | Unit Name | clearance |
| --- | --- | --- |
| Cc1ccc([C@H](C(=O)N(C)C)N2C(=O)[C@@H](C3Cc4ccccc4C3)NC(=O)[C@H]2CC(C)C)cn1 | mL/min/kg | 18 |
| CC[C@H](C)[C@@H]1C(=O)N[C@H](C2Cc3ccccc3C2)C(=O)N1[C@@H](C(=O)N1CCOCC1)c1ccc(C)nc1 | mL/min/kg | 27 |
| CC[C@H](C)[C@@H]1C(=O)N[C@H](C2Cc3ccccc3C2)C(=O)N1[C@@H](C(=O)NC)c1ccc(C)nc1C | mL/min/kg | 25 |
